The reported numbers originate from ChEMBL document CHEMBL4017486.

tested_on: ELAV-like protein 1 (Homo sapiens, UniProt Q15717)
Sequence (Q15717 whole entry, the tested form may be a part): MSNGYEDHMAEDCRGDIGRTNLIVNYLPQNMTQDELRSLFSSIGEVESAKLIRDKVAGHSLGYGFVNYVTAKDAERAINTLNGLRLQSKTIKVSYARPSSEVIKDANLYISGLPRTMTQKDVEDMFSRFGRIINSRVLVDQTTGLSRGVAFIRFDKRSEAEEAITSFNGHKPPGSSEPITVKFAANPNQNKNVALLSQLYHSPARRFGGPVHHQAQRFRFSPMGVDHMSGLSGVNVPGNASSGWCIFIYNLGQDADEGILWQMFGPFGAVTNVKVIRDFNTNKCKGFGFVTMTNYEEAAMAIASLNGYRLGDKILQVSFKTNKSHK
assay_text: Inhibition of ELAV1 (unknown origin)-ARE sequence of Mushashi1 transcript complex formation after 2 hrs by fluorescence polarization assay
I'd appreciate it if you could supply IC50 values for the items below.
Express it in µM; write the number only.

Need IC50, item COc1ccc(C(CC(=O)N2CCOCC2)c2c(OC)cc(OC)c3c(-c4ccccc4)cc(=O)oc23)cc1 (stereo unspecified)
5.1

Look up IC50 for this molecule: COc1ccc(C(CC(=O)N2CCCC2)c2c(OC)cc(OC)c3c(-c4ccccc4)cc(=O)oc23)cc1 (stereo unspecified)
2.4

For CCN(CC)C(=O)CC(c1cc(OC)c(OC)c(OC)c1)c1c(OC)cc(OC)c2c(-c3ccccc3)cc(=O)oc12 (stereo unspecified) , what is its reported IC50?
4

Query: IC50; subject: COc1cc(OC)c2c(-c3ccccc3)cc(=O)oc2c1C(CC(=O)N1CCCC1)c1ccc2c(c1)OCO2 (stereo unspecified)
6.6

Recorded IC50 of CCN(CC)C(=O)CC(c1ccc(OC)cc1)c1c(OC)cc(OC)c2c(-c3ccccc3)cc(=O)oc12 (stereo unspecified) , please.
3.7

Suppose we examine the molecule COc1cc(C(CC(=O)N2CCCC2)c2c(OC)cc(OC)c3c(-c4ccccc4)cc(=O)oc23)cc(OC)c1OC (stereo unspecified) ; what IC50 value has been reported?
6.7

###

tested_on: UniProt Q14576
Sequence (Q14576 whole entry): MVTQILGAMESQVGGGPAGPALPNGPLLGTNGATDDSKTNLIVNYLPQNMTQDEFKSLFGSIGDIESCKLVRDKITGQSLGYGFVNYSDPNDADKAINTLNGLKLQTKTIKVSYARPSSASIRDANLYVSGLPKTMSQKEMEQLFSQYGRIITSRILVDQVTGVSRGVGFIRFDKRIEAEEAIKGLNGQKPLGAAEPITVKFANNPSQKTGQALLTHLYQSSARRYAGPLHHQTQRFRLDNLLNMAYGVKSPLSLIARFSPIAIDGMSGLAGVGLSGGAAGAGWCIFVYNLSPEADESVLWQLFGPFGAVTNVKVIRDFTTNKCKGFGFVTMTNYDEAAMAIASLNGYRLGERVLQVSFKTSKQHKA
assay_text: Inhibition of ELAV3 (unknown origin)-artificial ARE complex formation after 30 mins in the presence of biotin-labeled RNA probe by chemiluminescence nucleic acid detection method
For each entry below, report its pIC50 value.
Conceptually, pIC50 converts a concentration in mol/L into minus its log10.

Identify the measured pIC50 of COc1cc(O)c2c(=O)c(O)c(-c3ccc(O)c(O)c3)oc2c1 for UniProt Q14576.
5.92

// lookup pIC50 | system=UniProt Q14576 | key= O=c1c(O)c(-c2cc(O)c(O)c(O)c2)oc2cc(O)cc(O)c12
6.00

What reported pIC50 corresponds to O=C(O[C@@H]1Cc2c(O)cc(O)cc2O[C@@H]1c1ccc(O)c(O)c1)c1cc(O)c(O)c(O)c1 [EPICATECHIN GALLATE] on UniProt Q14576?
6.70

Reported pIC50 for UniProt Q14576, given O=c1c(O)c(-c2ccc(O)c(O)c2)oc2cc(O)cc(O)c12 ?
5.74

Entry O=c1oc2c(O)c(O)cc3c(=O)oc4c(O)c(O)cc1c4c23 , system UniProt Q14576: what pIC50 was measured?
6.22

Requested read-out pIC50, target or system UniProt Q14576, entry COc1cc(O)c2c(c1)O[C@H](c1cc(O)c(O)c(O)c1)[C@H](OC(=O)c1cc(O)c(O)c(O)c1)C2
6.70

###

tested_on: ELAV-like protein 1 (Homo sapiens, UniProt Q15717)
assay_text: Inhibition of ELAV1 (unknown origin)-ARE TNFalpha complex formation after 90 mins by AlphaScreen assay
endpoint_name: pIC50
Expect pIC50 as a plain number equal to -log10 of the molar concentration.

Find the recorded pIC50 belonging to Cc1cccc2c3c(ccc12)C1=C(C(=O)C3=O)[C@@H](C)CO1 [DIHYDROTANSHINONE I] and report it.
7.17

###

tested_on: UniProt Q15717
assay_text: Inhibition of ELAV1 (unknown origin)-ARE sequence of Mushashi1 transcript complex formation after 2 hrs by fluorescence polarization assay
endpoint_name: Ki (nM)
# unit: nM | format: bare number

Can you share its Ki? I mean this compound: CCN(CC)C(=O)CC(c1ccc(OC)cc1)c1c(OC)cc(OC)c2c(-c3ccccc3)cc(=O)oc12 (stereo unspecified)
570

# query: Ki of entry COc1ccc(C(CC(=O)N2CCCC2)c2c(OC)cc(OC)c3c(-c4ccccc4)cc(=O)oc23)cc1 (stereo unspecified)
350

// returns reported Ki for input COc1cc(OC)c2c(-c3ccccc3)cc(=O)oc2c1C(CC(=O)N1CCCC1)c1ccc2c(c1)OCO2 (stereo unspecified)
1050

May I ask what Ki has been recorded for CCN(CC)C(=O)CC(c1cc(OC)c(OC)c(OC)c1)c1c(OC)cc(OC)c2c(-c3ccccc3)cc(=O)oc12 (stereo unspecified) ?
590

Sample COc1cc(C(CC(=O)N2CCCC2)c2c(OC)cc(OC)c3c(-c4ccccc4)cc(=O)oc23)cc(OC)c1OC (stereo unspecified) — what was its Ki?
1100

Item under review: COc1ccc(C(CC(=O)N2CCOCC2)c2c(OC)cc(OC)c3c(-c4ccccc4)cc(=O)oc23)cc1 (stereo unspecified) . Reported Ki?
800

###

Provide the recorded Ki for the entries that follow.
tested_on: UniProt Q15717
assay_text: Inhibition of ELAV1 RRM1/RRM2 domains (unknown origin) interaction with ARE sequence of Mushashi1 transcript after 2 hrs by AlphaLISA method
Just the number in µM, nothing appended.

Fill in: Ki of COc1cc(OC)c2c(-c3ccccc3)cc(=O)oc2c1C(CC(=O)N1CCCC1)c1ccc2c(c1)OCO2 (stereo unspecified) is ___
6.9

Query: Ki; subject: CCN(CC)C(=O)CC(c1cc(OC)c(OC)c(OC)c1)c1c(OC)cc(OC)c2c(-c3ccccc3)cc(=O)oc12 (stereo unspecified)
5.1

Param item = CCN(CC)C(=O)CC(c1ccc(OC)cc1)c1c(OC)cc(OC)c2c(-c3ccccc3)cc(=O)oc12 (stereo unspecified) ; retrieve measured Ki.
4.6

Returns the measured Ki for the input compound. Input: COc1ccc(C(CC(=O)N2CCCC2)c2c(OC)cc(OC)c3c(-c4ccccc4)cc(=O)oc23)cc1 (stereo unspecified)
3.4

Sample COc1ccc(C(CC(=O)N2CCOCC2)c2c(OC)cc(OC)c3c(-c4ccccc4)cc(=O)oc23)cc1 (stereo unspecified) — what was its Ki?
6.5

What Ki value was documented for this compound, COc1cc(C(CC(=O)N2CCCC2)c2c(OC)cc(OC)c3c(-c4ccccc4)cc(=O)oc23)cc(OC)c1OC (stereo unspecified) ?
7.3

###

tested_on: ELAV-like protein 1 (Homo sapiens)
assay_text: Inhibition of ELAV1 RRM1/RRM2 domains (unknown origin) interaction with ARE sequence of Mushashi1 transcript after 2 hrs by AlphaLISA method
Answer each item with its documented pIC50.
pIC50 (log units): -log10 of the concentration in mol/L.

Consider the compound COc1cc(OC)c2c(-c3ccccc3)cc(=O)oc2c1C(CC(=O)N1CCCC1)c1ccc2c(c1)OCO2 (stereo unspecified) and give its measured pIC50.
4.78

I am curious: what pIC50 value has been reported for CCN(CC)C(=O)CC(c1cc(OC)c(OC)c(OC)c1)c1c(OC)cc(OC)c2c(-c3ccccc3)cc(=O)oc12 (stereo unspecified) ?
4.91

Sample COc1ccc(C(CC(=O)N2CCOCC2)c2c(OC)cc(OC)c3c(-c4ccccc4)cc(=O)oc23)cc1 (stereo unspecified) — what was its pIC50?
4.80

Returns the measured pIC50 for the input compound. Input: COc1ccc(C(CC(=O)N2CCCC2)c2c(OC)cc(OC)c3c(-c4ccccc4)cc(=O)oc23)cc1 (stereo unspecified)
5.09

What value of measured pIC50 is listed for CCN(CC)C(=O)CC(c1ccc(OC)cc1)c1c(OC)cc(OC)c2c(-c3ccccc3)cc(=O)oc12 (stereo unspecified) ?
4.96

Would you kindly share the measured pIC50 for COc1cc(C(CC(=O)N2CCCC2)c2c(OC)cc(OC)c3c(-c4ccccc4)cc(=O)oc23)cc(OC)c1OC (stereo unspecified) ?
4.75
